- EXPERIMENTAL TARGET: T1, polypeptide GC3pep (human)
- T1 construct: also called membrane proximal polypeptide GC3pep
- T1 peptide: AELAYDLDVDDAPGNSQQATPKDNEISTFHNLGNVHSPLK
- TEST DESCRIPTION: ELISA, GC3pep coated, antibody 0.01 nM;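 also: bound antibody detected with an HRP-conjugated secondary antibody and TMB substrate, color reaction stopped with HCl before reading absorbance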
MEASUREMENT NAME: OD450 nm (OD450 nm)
Kindly answer with a numeric value in OD450 nm, unit omitted.

Note down OD450 nm recorded for F4.18.4 (antibody, human IgG1, kappa, V domains shown, human-murine chimeric antibody) VH: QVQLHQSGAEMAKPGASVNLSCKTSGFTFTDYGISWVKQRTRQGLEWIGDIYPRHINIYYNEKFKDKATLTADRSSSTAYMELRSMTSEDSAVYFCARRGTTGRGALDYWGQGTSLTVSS VL: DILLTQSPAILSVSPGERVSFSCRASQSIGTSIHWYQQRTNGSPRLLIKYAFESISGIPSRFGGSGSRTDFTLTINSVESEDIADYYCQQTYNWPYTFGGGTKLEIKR 0.04

# return recorded OD450 nm for input F2.39.2 (antibody, human IgG1, kappa, V domains shown, human-murine chimeric antibody) VH: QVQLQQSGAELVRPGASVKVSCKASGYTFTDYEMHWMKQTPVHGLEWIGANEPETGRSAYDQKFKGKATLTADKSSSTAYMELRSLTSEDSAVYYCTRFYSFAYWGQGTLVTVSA VL: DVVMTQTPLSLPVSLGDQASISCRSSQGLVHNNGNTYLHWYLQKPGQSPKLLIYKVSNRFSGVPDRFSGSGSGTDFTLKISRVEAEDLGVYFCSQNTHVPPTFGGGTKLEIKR 0.32

Give a short answer stating reported OD450 nm for F1.111.11 (antibody, human IgG1, kappa, V domains shown, human-murine chimeric antibody) VH: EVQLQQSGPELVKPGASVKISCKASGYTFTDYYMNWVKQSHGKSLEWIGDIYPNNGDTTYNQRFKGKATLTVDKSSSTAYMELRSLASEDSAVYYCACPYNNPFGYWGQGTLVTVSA VL: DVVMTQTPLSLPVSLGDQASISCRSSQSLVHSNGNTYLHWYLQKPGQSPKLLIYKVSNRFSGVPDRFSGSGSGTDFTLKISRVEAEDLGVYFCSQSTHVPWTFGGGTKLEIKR . 0.05
